tested on: A549 (human lung cancer cells); test: MTT in vitro anti-tumor activity test, A549; format: cell-based; conditions: A549 human lung cancer cells, MTT, 72 h
metric_name: A549 IC50 (µg/mL)

COc1ccc2c(c1)C(=O)c1c-2c(OCCN(C)C)nc2ccc(OC)cc12 17.27
COc1ccc2c(c1)-c1c(OCCN(C)C)nc3ccc(OC)cc3c1C2=O 18.26
COc1ccc2c(c1)C(=O)c1c-2c(OCCN(C)C)nc2cc(OC)c(OC)cc12 13.78

====

system: MDA-MB-435 (human breast cancer cells); experiment: MTT in vitro anti-tumor activity test, MDA-MB-435; type: cell-based; conditions: MDA-MB-435 human breast cancer cells, MTT, 72 h
metric_name: MDA-MB-435 IC50 (µg/mL)

Answered examples (3):
O=C1c2cc(Cl)ccc2-c2c(OCCN3CCCCC3)nc3ccccc3c21 44.76
O=C1c2cc(Cl)ccc2-c2c(OCCN3CCCC3)nc3ccccc3c21 12.28
CCN(CC)CCOc1nc2ccccc2c2c1-c1ccc(OC)cc1C2=O 1.99

P = COc1ccc2c(c1)C(=O)c1c-2c(OCCN(C)C)nc2ccc(OC)cc12
Q = CCN(CC)CCOc1nc2ccccc2c2c1-c1ccc(Cl)cc1C2=O
[Q] Param metric = MDA-MB-435 IC50; output whichever of P , Q has the minimum value. Give the chosen item's label as your response.
[A] P
